# EXPERIMENTAL_DETAILS: soluble fraction after stress (log2 fold change); higher = more stays soluble; pooled small domains, quantitative proteomics
# RUN_CONDITIONS: stress: pH 4
PARAMETER: soluble fraction (log2)
Write the number on its own, no unit after it.

Would you please look over these solved cases?
[
  {
    "SEQUENCE": "HMSENDTILAKFVSVMGNKNLELVIFPDIAYLKGQVSNPEDKTKAETVAQSLLGGKPLVSLIEFE",
    "soluble fraction (log2)": -0.917
  },
  {
    "SEQUENCE": "HMSATIMVLRASEDIPVGTEIKDNHLTTVEVGSYGLPEGAINDKDTVLGKVAQTNIIKGDYFFPQKLGG",
    "soluble fraction (log2)": -1.18
  },
  {
    "SEQUENCE": "HMLAKRYLVYGSGSLNSAYPDTKNIAYGIDSGKGFFLVGILTENEASKLKLKGYYVIEDFPLDFH",
    "soluble fraction (log2)": -0.921
  }
]

Query :: Write down soluble fraction (log2) measured for item `HMKRFSPPSIEEVDSYIREKGYTVDAERFVNFYESKGWYVGKNKMKNWRAAVATWQKEDNKRN`
Result :: -0.0455

Query :: Write down soluble fraction (log2) measured for item `HMQVEYTRGELLQDLKEENVLYATITPSRETPTGEVDFVFKDKSIKTLYVTDVSEIEGLLMDYGIDPEVKK`
Result :: -0.367

Query :: Write down soluble fraction (log2) measured for item `HMPVYEEEVPAALDGQRLDRVVAMVTGLSRSEVGALLAAGAVTVDGTTPAKGSVRLAAGSIVSVTVS`
Result :: -0.366

Query :: Write down soluble fraction (log2) measured for item `HMAPVLTRREHEVLHLLTDGLDNRTIARNLFISEATVKFHLHNIMGKFGVHRRAALVSTALRG`
Result :: -0.182

Query :: Write down soluble fraction (log2) measured for item `HMSYGKVQFVIDAKDAVLSIDGKETDYEKPVKLTYGSHTITVYSSDYDTWKRNLYVNSEKSTVVINLA`
Result :: -0.0156

Query :: Write down soluble fraction (log2) measured for item `HMKVKIFNGMKLVTNSTGLTVDGKPAALDESNADAKTYSQGLYVFIVYQSGKIAVMQDGKFLGYA`
Result :: 0.301

---

Quick reference: soluble fraction (log2) of the listed items.
# EXPERIMENTAL_DETAILS: soluble fraction after stress (log2 fold change); higher = more stays soluble; pooled small domains, quantitative proteomics
# RUN_CONDITIONS: stress: pH 4
Write the number on its own, no unit after it.

Would you please look over these solved cases?
[
  {
    "SEQUENCE": "HMGNLVDGINKKLTHVRDSLPEGYTLDEFKSAFQQQYPAAYDAYEGDKGKQFDKWLGNVIQSLPKK",
    "soluble fraction (log2)": 0.137
  },
  {
    "SEQUENCE": "HMPDPLYLINGKIVNKSDFNNIDPRSIQSIEVLKANKALEAFGNDGKNGVIKITLKSSNDQM",
    "soluble fraction (log2)": 0.22
  },
  {
    "SEQUENCE": "HMIDRADLWEALRKLPEDTLKLFSLHFEKGMTHDEISKHTDIPVGTVKTKLRRGLIEARKLAREF",
    "soluble fraction (log2)": -0.394
  },
  {
    "SEQUENCE": "HMEIIMIVITKPSITDERIAEIVAVIERNGGVQAHVSKGTDRTVIGIIGKAEPTLAEHLRQMKGVENVIKI",
    "soluble fraction (log2)": -0.327
  }
]

Query :: Write down soluble fraction (log2) measured for item `HMKEVVKVTITPSEKLKSQYPDALVSIDGKFYDLGILNNPVEFYMDKDHKISIIWSTAELVESFRI`
Result :: -0.248

Query :: Write down soluble fraction (log2) measured for item `HMAVNSALVQRNWLIGYRIAEEELQGDNRAEYGASIIKKLAKELTAEYGKGYTKTNLYHFYSFYKT`
Result :: -0.494

Query :: Write down soluble fraction (log2) measured for item `HMTTIFDNINGELRRRHLTQQDLAKTIEIDRRTWSKWQDKNDMPASVLLQIAKWLNVTLDYLTRD`
Result :: 0.0559

---

# EXPERIMENTAL_DETAILS: soluble fraction after stress (log2 fold change); higher = more stays soluble; pooled small domains, quantitative proteomics
# RUN_CONDITIONS: stress: pH 4
Would you please tag the item yes (1) when its soluble fraction (log2) is -0.5 or above, and no (0) when it is below?

Worked examples follow.
[
  {
    "SEQUENCE": "HMNLFKAPMPGLIRTIVVAEGQEVKKGDVILILEAMKMENALKSPADLVVKSIKVQQGQAVEKNQLLIEF",
    "CATEGORY": "yes (1)"
  },
  {
    "SEQUENCE": "HMVIANADVRAKFSKGKDSFVKYYFKEKVLKDGFTEEVKNNIVQALFYLQIVTRIDGESGVLIIDY",
    "CATEGORY": "yes (1)"
  },
  {
    "SEQUENCE": "HMSSNLSLHKEGNKIVILGLEGKSVIEVYDLMGRLLSSQTNYNPKQEITLLQPVIIRVTDTQQTKSFKV",
    "CATEGORY": "yes (1)"
  },
  {
    "SEQUENCE": "HMDFIEYIISEESKGLRADQAISMENDKFSRSLIQKWIKKGRVLVNGRKIKPKDIVNLNDKITINPEESIN",
    "CATEGORY": "no (0)"
  },
  {
    "SEQUENCE": "HMHIMINPDQLSPEQIQSIRTWAEEGLDLNAIQKRLHEDLNIKLTFMDTRFLLQDLDIRIRQPEPEPEAEQ",
    "CATEGORY": "no (0)"
  },
  {
    "SEQUENCE": "HMAPSLSEYAYEEIKHAIERGVYPPGAKLITQEIADRLGISRTPVVAAVNRLTAEGYADAVPQHGIFVK",
    "CATEGORY": "yes (1)"
  },
  {
    "SEQUENCE": "HMSEEVKSQPISILDLSTRASNGLKNEGIETIGELVKYSEDELLGLDKFGQNSLKEIKKKLEEIGLTLKEH",
    "CATEGORY": "yes (1)"
  },
  {
    "SEQUENCE": "HMIADPLVINKLMDSMALAINDYNPDSVEPVLDELRQYFSENQLRELSKAMDDFDFDEALNALTLLRT",
    "CATEGORY": "no (0)"
  },
  {
    "SEQUENCE": "HMKDPSFELMSVAESFYRSGNVDHAVYALEKYLEVYADGDYTDRAHDLLSQARKGLTYPHGYPPLQI",
    "CATEGORY": "no (0)"
  },
  {
    "SEQUENCE": "HMVTEKNALTIEIEDLTKRFGNQRESLLPILQEVQLKHGHISDFAQQEIARLLDIHPVEVYGVVTFFSFLS",
    "CATEGORY": "no (0)"
  }
]

Query :: Quick check, soluble fraction (log2) >= -0.5? `HMNRIEMTEPIIIKDLSRETGIPWVAIQKRLAQDGIMANINTTIEAEKAQLIAVDYGIELAVV`
Result :: no (0)

Query :: Quick check, soluble fraction (log2) >= -0.5? `HMHMHTADDFKQLAKHTSNGRLRTRYLALYHFKKGETRTQIAAYLGVARGSVNTWVSNYLAYGLEGLQS`
Result :: yes (1)

Query :: Quick check, soluble fraction (log2) >= -0.5? `HMRSYTPGSAFRLSSVPVYNAETGPSIGVRSGTYYIHSLPVSNGRIRMTNLISRVGKPGQVSFWVEISR`
Result :: yes (1)

Query :: Quick check, soluble fraction (log2) >= -0.5? `HMAAEGARNNSLFNSLRERALEVSSHNELEQIAFKMNETNIPPLRASEVISVVNSVWKNRISNQIIP`
Result :: yes (1)

Query :: Quick check, soluble fraction (log2) >= -0.5? `HMIDEQDLKKYILISTSVEELTDYLGATDRMLYDYLYSLKHVGQYWQLNERFLLDLYKLPNLVIVDKEDLE`
Result :: yes (1)

Query :: Quick check, soluble fraction (log2) >= -0.5? `HMTVVLPGESLTVNIIQEGKELGQGVGYLDDGTMVVIEDGRRYIDQTIEVTVTRVLQTVAGRMIFAQLT`
Result :: no (0)

Query :: Quick check, soluble fraction (log2) >= -0.5? `HMKNHIEERRKARGMTQQQLASELGVSRQTIISLENGKYNPSILLAHSIARLFGERIEDIFILR`
Result :: yes (1)

Query :: Quick check, soluble fraction (log2) >= -0.5? `HMVGVDMTVKEEVGKEGVTFTDLRPAGKVEIGNDIYDAVSNTGAFIQKGEKVKIIKYQAGQVYVEKLV`
Result :: yes (1)

Query :: Quick check, soluble fraction (log2) >= -0.5? `HMSYEDLIQAVSGHFGIEIRALLSEDRKKENMIPRQVAMYLLKNKLHYTYERIGNIFSGRNHTAVMYSV`
Result :: yes (1)

Query :: Quick check, soluble fraction (log2) >= -0.5? `HMSMPEVLSDRELEIFRMIGTGMSTGDIAKKLNISVNTIESHRKKIKDKLGIQKGSELVKAAVQWVSTQQ`
Result :: yes (1)

Query :: Quick check, soluble fraction (log2) >= -0.5? `HMNRIKIYPTPGSKVLSIENINFSLIHDFKILDIFGREVKNFTVSSEKNTKMLVDTSKLSDGLYFIFFNTF`
Result :: no (0)

Query :: Quick check, soluble fraction (log2) >= -0.5? `HMPEQLLNTRIPLEFAGRRFDASLAELFPDYSRSRLAAWIKDGAARLDGETVAPRHTVRGGEQVEILVRM`
Result :: yes (1)

Query :: Quick check, soluble fraction (log2) >= -0.5? `HMSSETTVPAVVGIKEDKARQLASEQGLRLRVKSREESADVEEGIIISQDPNSNTKVKKGDEIEVVVS`
Result :: yes (1)
